Reference source: paper PMC4523340

# testedOn: 5-HT7(d) receptor (Homo sapiens, UniProt P34969)
# Sequence (P34969 whole entry): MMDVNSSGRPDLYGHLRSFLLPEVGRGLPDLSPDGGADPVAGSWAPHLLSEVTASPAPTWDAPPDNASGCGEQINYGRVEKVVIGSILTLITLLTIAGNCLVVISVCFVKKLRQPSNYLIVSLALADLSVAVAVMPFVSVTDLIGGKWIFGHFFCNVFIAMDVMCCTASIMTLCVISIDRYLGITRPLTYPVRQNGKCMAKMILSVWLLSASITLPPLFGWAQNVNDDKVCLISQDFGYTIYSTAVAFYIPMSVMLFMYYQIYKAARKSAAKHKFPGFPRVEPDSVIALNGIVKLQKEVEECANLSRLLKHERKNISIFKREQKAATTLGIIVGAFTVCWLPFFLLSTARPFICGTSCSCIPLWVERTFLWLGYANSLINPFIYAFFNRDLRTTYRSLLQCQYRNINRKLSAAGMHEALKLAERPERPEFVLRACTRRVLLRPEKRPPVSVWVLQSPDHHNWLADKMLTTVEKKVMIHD
reportedProperty: Kd (nM)
Express your answer in nM, writing the number without its unit.

# input Give the measured Kd of CN1C[C@@H](NS(=O)(=O)N(C)C)C[C@@H]2c3cccc4c3c(cn4C)C[C@H]21 [mesulergine] .
# output 9.6

###

# testedOn: 5-HT7(b) receptor (Homo sapiens)
# Sequence (P34969 1-432 limits assumed): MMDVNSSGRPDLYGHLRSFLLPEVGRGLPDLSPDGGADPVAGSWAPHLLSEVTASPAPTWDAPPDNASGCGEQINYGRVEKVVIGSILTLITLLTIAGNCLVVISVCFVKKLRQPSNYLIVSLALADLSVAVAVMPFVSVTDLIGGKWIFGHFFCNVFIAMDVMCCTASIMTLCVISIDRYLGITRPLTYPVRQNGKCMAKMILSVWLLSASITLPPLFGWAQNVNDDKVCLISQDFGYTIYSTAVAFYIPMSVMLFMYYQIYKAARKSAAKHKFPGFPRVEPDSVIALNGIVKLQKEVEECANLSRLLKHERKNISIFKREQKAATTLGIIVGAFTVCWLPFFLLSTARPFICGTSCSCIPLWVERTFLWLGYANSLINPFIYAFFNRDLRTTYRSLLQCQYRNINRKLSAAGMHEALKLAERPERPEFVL
reportedProperty: Kd
State the result as a value with its unit after it.

# input Please provide the recorded Kd for `CN1C[C@@H](NS(=O)(=O)N(C)C)C[C@@H]2c3cccc4c3c(cn4C)C[C@H]21` , tested on 5-HT7(b) receptor (Homo sapiens).
# output 6.2 nM
